Please respond with reported Population Hoechst High Intensity Objects (%) for every item in the list.
system: U2OS; assay: Multiplex assay against U2OS; format: toxicity, cell-based; conditions: human, 48 h, 1 µM, compound concentration 1 uM, replicate 1
One number for each entry, in %.

Consider the reported Population Hoechst High Intensity Objects (%) for these compounds:
compound | unitAbbrev | measValue
CCNC1(C(N)=O)CCN(c2ncnc3c2nc(-c2ccccc2Cl)n3-c2ccc(Cl)cc2)CC1 | % | 1
Cc1ccc(C(C)(O)c2nc3ccccc3s2)c(C)c1 (stereo not drawn) | % | 2
CC(=O)NCCc1c(Cc2ccccc2)[nH]c2ccccc12 | % | 2
CN(C)c1ccnc2sc3c(=O)n(N4CCCCCC4)cnc3c12 | % | 2
N[C@@]1(C(=O)O)CO[C@H]2[C@H](C(=O)O)[C@H]21 | % | 1
O=C1COc2nccc(-c3ccccc3F)c2CN1Cc1cc(C(F)(F)F)cc(C(F)(F)F)c1 | % | 3
Cc1ccc(/C(=C\CN2CCCC2)c2ccccn2)cc1 | % | 2
CCOc1c2c(c(OCC)c3ncccc13)CN(c1ccc(CS(=O)(=O)NC(=O)Cc3ccccc3OC)cc1C)C2=O | % | 2

Each compound below has a recorded value; state its Population Hoechst High Intensity Objects (%).
1. CC[C@H]1OC(=O)[C@H](C)[C@@H](O[C@H]2C[C@@](C)(OC)[C@@H](O)[C@H](C)O2)[C@H](C)[C@@H](O[C@@H]2O[C@H](C)C[C@H](N(C)C)[C@H]2O)[C@@]2(C)CC(C)=C(O2)[C@H](C)[C@@H](O)[C@]1(C)O
2. Cc1nc2ccc(Oc3ccc(F)cc3)cc2c(=O)n1C[C@H]1CCCN(C(C)C)C1.Cl
3. C[C@H]1[C@H]2CC[C@H]3[C@@H]4CC=C5C[C@@H](N(C)C)CC[C@]5(C)[C@H]4CC[C@]23CN1C
4. CN1CCN(c2nc3cc(C(F)(F)F)ccc3n3cccc23)CC1.O=C(O)/C=C\C(=O)O.O=C(O)/C=C\C(=O)O
5. Cl.Clc1ccc2nsnc2c1NC1=NCCN1 [TIZANIDINE HYDROCHLORIDE]
6. O=C(NCCO)c1cccc(-c2cc(Nc3ccc(OC(F)(F)F)cc3)ncn2)c1
7. c1cc(OCCCN2CCCCC2)ccc1CN1CCCCC1
8. COc1cc(C(=O)N(CCCc2ccccc2)Cc2ccc(CC(=O)O)cc2)cc(OC)c1C

Resp:
[9, 1, 2, 2, 1, 2, 2, 3]

Value sought for every listed compound: Population Hoechst High Intensity Objects (%).
1. COc1c(C)cc(NC(=O)c2nn(Cc3ccc(F)cc3)c3c2CN(C(=O)c2ccc[nH]2)C[C@]3(C)C(N)=O)cc1C
2. O=C(O)c1cc2ccccc2c(Cc2c(O)c(C(=O)O)cc3ccccc23)c1O

Resp:
2
1
